Record form. Attribute: EC50 hGIP R (cAMP formation). Fill in for each entry.
- experimental-system: T1, human GIP receptor (human, UniProt P48546 22-466)
- T1 sequence (looked up): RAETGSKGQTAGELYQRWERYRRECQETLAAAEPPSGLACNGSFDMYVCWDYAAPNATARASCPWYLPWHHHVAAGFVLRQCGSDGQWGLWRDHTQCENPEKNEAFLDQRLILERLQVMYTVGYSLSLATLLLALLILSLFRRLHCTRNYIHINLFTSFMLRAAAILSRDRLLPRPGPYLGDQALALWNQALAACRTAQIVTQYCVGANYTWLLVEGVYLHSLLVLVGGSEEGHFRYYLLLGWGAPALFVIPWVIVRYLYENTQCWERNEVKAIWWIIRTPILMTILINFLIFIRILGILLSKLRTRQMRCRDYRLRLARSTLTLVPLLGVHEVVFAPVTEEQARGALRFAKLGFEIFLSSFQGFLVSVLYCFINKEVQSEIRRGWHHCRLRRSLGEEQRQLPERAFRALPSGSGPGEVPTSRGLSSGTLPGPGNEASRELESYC
- assay-text: cell-based or functional assay
Numbered stars: 1 amine (or outer) side, 2 acyl side, 3 side chain; on linkers, the order of the positions; unused ones are H or OH. Square brackets hold non-standard residues; d marks the D form. Side chains are listed from the residue outwards. Ends that are not written are not given here. * marks the point of attachment. γGlu = O=C(O)[C@H](CCC(=O)[*:2])N[*:1]; Palmitoyl = CCCCCCCCCCCCCCCC(=O)*; gAAA = not defined here; AEEA = NCCOCCOCC(=O)O; Aib = CC(C)(N)C(=O)O
Respond with the bare value in pM.

[ask] Return reported EC50 hGIP R (cAMP formation); argument: H[Aib]QGTFTSDLSKLK([γGlu-AEEA-gAAA-Palmitoyl])EEQRQ[Aib]EFIEWLKAGGHPS[Aib]KPPPK-NH2 (reading uncertain) [SEQ ID NO: 22]
[reply] 6

[ask] What value of EC50 hGIP R (cAMP formation) has been recorded for this entry: H[Aib]QGTFTSDLSKLK([γGlu-AEEA-gAAA-Palmitoyl])EKQRQ[Aib]EFIEWLKAGGHPS[Aib]KPPPK-NH2 (reading uncertain) [SEQ ID NO: 20]
[reply] 12.7

[ask] # input binder: H[Aib]QGTFTSDLSKLK([γGlu-AEEA-gAAA-Palmitoyl])EKQRQ[Aib]EFIEWLKA[dA]GHPS[Aib]KPPPK-NH2 (reading uncertain) [SEQ ID NO: 21] ; wanted: its EC50 hGIP R (cAMP formation)
[reply] 24.6

[ask] Name the reported EC50 hGIP R (cAMP formation) value associated with the binder H[Aib]QGTFTSDLSKLK([γGlu-AEEA-gAAA-Palmitoyl])EEQRQ[Aib]EFIEWLKA[dA]GHPS[Aib]KPPPK-NH2 (reading uncertain) [SEQ ID NO: 23]
[reply] 2
